Target: HIV-1 integrase (Human immunodeficiency virus type 1 group M subtype B)
Assay: biochemical
Format: biochemical
Settings: Table 7; strand transfer; read-out: IC50 (μM) ST
property.name: IC50 (µM)
Respond numerically; units are µM and should not be typed.

compound Nc1c(C(=O)NCc2ccc(F)cc2F)c(=O)n(O)c2ncc(CCCO)cc12 [XZ423] , IC50 observed: 0.0113

compound Nc1c(C(=O)NCc2ccc(F)cc2F)c(=O)n(O)c2ncc(CCCCCO)cc12 [XZ419] , IC50 observed: 0.0027

compound Nc1c(C(=O)NCc2ccc(F)cc2F)c(=O)n(O)c2ncc(CCCC3CCCCC3)cc12 [XZ428] , IC50 observed: 3.28

compound Nc1c(C(=O)NCc2ccc(F)cc2F)c(=O)n(O)c2ncc(CCCCCCOC(=O)c3ccccc3)cc12 [XZ427] , IC50 observed: 3.34

compound CC(=O)OCCCc1cnc2c(c1)c(N)c(C(=O)NCc1ccc(F)cc1F)c(=O)n2O [XZ424] , IC50 observed: 0.0102

compound COC(=O)CCc1cnc2c(c1)c(N)c(C(=O)NCc1ccc(F)cc1F)c(=O)n2O [XZ434] , IC50 observed: 0.0018

compound Nc1c(C(=O)NCc2ccc(F)cc2F)c(=O)n(O)c2ncc(CCc3ccccc3)cc12 [XZ430] , IC50 observed: 0.0145

compound Nc1c(C(=O)NCc2ccc(F)cc2F)c(=O)n(O)c2ncc(CCCCc3ccccc3)cc12 [XZ429] , IC50 observed: 1.98
